Every entry's value here was drawn from patent US20250122223A1.

The following molecules are listed with their measured pIC50 values.
# system_under_test: USP7 (Homo sapiens (Human))
# Sequence (Q93009 whole entry): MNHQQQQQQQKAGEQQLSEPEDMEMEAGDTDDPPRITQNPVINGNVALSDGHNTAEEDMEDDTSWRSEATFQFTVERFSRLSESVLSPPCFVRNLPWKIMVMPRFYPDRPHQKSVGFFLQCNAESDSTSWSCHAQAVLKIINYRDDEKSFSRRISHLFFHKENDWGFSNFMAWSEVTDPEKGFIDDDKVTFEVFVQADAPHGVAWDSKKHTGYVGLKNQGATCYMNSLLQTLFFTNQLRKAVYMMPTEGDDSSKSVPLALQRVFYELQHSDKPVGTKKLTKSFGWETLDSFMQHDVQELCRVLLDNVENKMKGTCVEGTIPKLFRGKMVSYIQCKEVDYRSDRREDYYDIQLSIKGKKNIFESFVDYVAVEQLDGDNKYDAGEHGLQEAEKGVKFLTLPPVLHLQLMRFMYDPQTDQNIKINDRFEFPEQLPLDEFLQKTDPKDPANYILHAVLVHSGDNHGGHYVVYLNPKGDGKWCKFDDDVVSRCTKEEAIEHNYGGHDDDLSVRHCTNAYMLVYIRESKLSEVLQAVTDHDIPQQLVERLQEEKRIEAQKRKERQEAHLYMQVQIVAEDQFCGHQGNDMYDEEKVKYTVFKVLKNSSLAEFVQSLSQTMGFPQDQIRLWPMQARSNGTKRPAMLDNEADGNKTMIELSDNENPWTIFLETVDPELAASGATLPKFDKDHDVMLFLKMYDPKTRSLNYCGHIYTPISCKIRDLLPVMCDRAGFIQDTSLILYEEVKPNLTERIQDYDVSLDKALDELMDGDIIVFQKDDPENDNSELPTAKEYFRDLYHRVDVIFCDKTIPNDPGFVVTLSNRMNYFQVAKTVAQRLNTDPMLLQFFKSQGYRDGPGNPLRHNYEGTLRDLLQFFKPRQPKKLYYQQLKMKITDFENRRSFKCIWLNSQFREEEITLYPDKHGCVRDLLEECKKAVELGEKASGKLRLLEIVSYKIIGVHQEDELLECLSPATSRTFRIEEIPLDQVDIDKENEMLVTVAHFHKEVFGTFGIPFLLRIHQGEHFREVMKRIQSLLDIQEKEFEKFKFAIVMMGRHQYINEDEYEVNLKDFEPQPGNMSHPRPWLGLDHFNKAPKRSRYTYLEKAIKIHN
# experimental_details: Target engagement assay-HTRF, competition with HA-Ub-VPS probe in HEK293 cells stably expressing Flag-tagged USP7
# Type: cell-based
# condition: HEK293 stable clone M6C5, 2 h treatment; read-out: Cellular target engagement: HEK293 Stable clone M6C5 USP7 IC50
Remember, pIC50 is on a log scale: it is -log10 of the molar concentration.

Example molecules with recorded pIC50:
C[C@H]1CN[C@H](c2ccc(-n3c(Cl)cc4c(=O)n(CC5(O)CCN(C(=O)[C@]6(C)C[C@H]6C(F)(F)F)CC5)cnc43)cc2)CO1 (single isomer, unassigned) | 6.89
Cc1cc(-n2c(Cl)cc3c(=O)n(CC4(O)CCN(C(=O)C[C@H](c5ccccc5)C(F)(F)F)CC4)cnc32)ccc1[C@H]1CO[C@H](C)CN1 | 7.40
CC[C@H]1CN[C@H](c2ccc(-n3c(Cl)cc4c(=O)n(CC5(O)CCN(C(=O)[C@]6(C)C[C@H]6C(F)(F)F)CC5)cnc43)cc2)CO1 (single isomer, unassigned) | 7.13
C[C@H]1CN[C@H](c2ccc(-n3c(Cl)cc4c(=O)n(CC5(O)CCN(C(=O)c6ccc(F)cc6)CC5)cnc43)cc2)CO1 | 6.74

Please look at the following molecule next.
Notebook: Cc1cc(-n2c(Cl)cc3c(=O)n(CC4(O)CCN(C(=O)[C@]5(C)C[C@H]5C(F)(F)F)CC4)cnc32)ccc1[C@H]1CO[C@H](C)CN1 (single isomer, unassigned) , pIC50 read as 7.00
